Ref: patent US6355799B1

Tested on: large crabgrass (Digitaria sanguinalis, DIGSA)
Protocol: Pre-emerge test, greenhouse herbicide activity screening
Format: in vivo
Condition: pre-emerge, 63 g ai/ha, 14 days after application, scale 0-100
Protocol: A standard greenhouse herbicide activity screening system was used to evaluate the herbicidal efficacy and crop safety of these test compounds. […] At 14 days after application of the test materials, phytotoxicity ratings were recorded. […]
Rule: phytotoxicity rating DIGSA below 20 gives fulfilled. Equal to or above 20 gives not fulfilled.

**Q:** hey, is phytotoxicity rating DIGSA for `COc1c(Cl)cc(F)c(-n2c(=O)cc(C(F)(F)F)n(C)c2=O)c1NC(=O)c1c(C)cccc1C` lower than 20 or not?
**A:** fulfilled

**Q:** hey, is phytotoxicity rating DIGSA for COc1c(Br)cc(F)c(-n2c(=O)cc(C(F)(F)F)n(C)c2=O)c1NC(=O)C=Cc1ccccc1 [2-177] lower than 20 or not?
**A:** not fulfilled

**Q:** hey, is phytotoxicity rating DIGSA for `COc1c(Cl)cc(F)c(-n2c(=O)cc(C(F)(F)F)n(C)c2=O)c1NC(=O)CSC` lower than 20 or not?
**A:** fulfilled

**Q:** hey, is phytotoxicity rating DIGSA for `COc1c(Cl)cc(F)c(-n2c(=O)cc(C(F)(F)F)n(C)c2=O)c1NC(=O)C=Cc1ccccc1[N+](=O)[O-]` lower than 20 or not?
**A:** not fulfilled

**Q:** hey, is phytotoxicity rating DIGSA for `COc1ccccc1C=CC(=O)Nc1c(OC)c(Cl)cc(F)c1-n1c(=O)cc(C(F)(F)F)n(C)c1=O` lower than 20 or not?
**A:** not fulfilled

**Q:** hey, is phytotoxicity rating DIGSA for `COc1c(Cl)cc(F)c(-n2c(=O)cc(C(F)(F)F)n(C)c2=O)c1NC(=O)CSC(C)C` lower than 20 or not?
**A:** not fulfilled

**Q:** hey, is phytotoxicity rating DIGSA for `COc1c(Cl)cc(F)c(-n2c(=O)cc(C(F)(F)F)n(C)c2=O)c1NC(=O)Cc1ccccc1` lower than 20 or not?
**A:** fulfilled

**Q:** hey, is phytotoxicity rating DIGSA for `COc1cc2ccccc2cc1C(=O)Nc1c(OC)c(Cl)cc(F)c1-n1c(=O)cc(C(F)(F)F)n(C)c1=O` lower than 20 or not?
**A:** not fulfilled

**Q:** hey, is phytotoxicity rating DIGSA for `Cn1c(C(F)(F)F)cc(=O)n(-c2ccc(C#N)cc2NC(=O)c2ccc3ccccc3c2)c1=O` lower than 20 or not?
**A:** not fulfilled

**Q:** hey, is phytotoxicity rating DIGSA for `Cc1c(Cl)cc(F)c(-n2c(=O)cc(C(F)(F)F)n(C)c2=O)c1NC(=O)C=Cc1ccccc1` lower than 20 or not?
**A:** not fulfilled

**Q:** hey, is phytotoxicity rating DIGSA for `COc1ccc(-n2c(=O)cc(C(F)(F)F)n(C)c2=O)c(NC(=O)c2ccc3ccccc3c2)c1` lower than 20 or not?
**A:** not fulfilled

**Q:** hey, is phytotoxicity rating DIGSA for `COc1c(Br)cc(F)c(-n2c(=O)cc(C(F)(F)F)n(C)c2=O)c1N(C(=O)C=Cc1ccccc1)C(=O)C=Cc1ccccc1` lower than 20 or not?
**A:** fulfilled

**Q:** hey, is phytotoxicity rating DIGSA for `Cn1c(C(F)(F)F)cc(=O)n(-c2c(F)cc(Cl)cc2NC2CC2)c1=O` lower than 20 or not?
**A:** not fulfilled

**Q:** hey, is phytotoxicity rating DIGSA for `COc1c(Cl)cc(F)c(-n2c(=O)cc(C(F)(F)F)n(C)c2=O)c1NC(=O)C(C#N)=Cc1ccccc1` lower than 20 or not?
**A:** fulfilled

**Q:** hey, is phytotoxicity rating DIGSA for `CCOC(=O)CSCC(=O)Nc1c(OC)c(Cl)cc(F)c1-n1c(=O)cc(C(F)(F)F)n(C)c1=O` lower than 20 or not?
**A:** not fulfilled

**Q:** hey, is phytotoxicity rating DIGSA for `COc1c(Cl)cc(F)c(-n2c(=O)cc(C(F)(F)F)n(C)c2=O)c1NC(=O)c1cc2ccccc2cc1C` lower than 20 or not?
**A:** not fulfilled
